The reported numbers originate from patent US20230017045A1.

Test system: test plant species
Assay: Post-emergent herbicidal activity test (greenhouse, foliar spray, visual growth reduction)
Type: in vivo
Details: post-emergence, 336 h, ECHCG: barnyardgrass (Echinochloa crus-galli), 140 g ai/ha, 14 days after application, read-out: Visual Growth Reduction (%) 14 Days After Application, ECHCG
Catalogue of pest or weed control at 140 g/ha readings, one per entry.

# Smiles Text, pest or weed control at 140 g/ha
records = [
    ("COC(=O)c1nc(-c2ccc(C(F)(F)F)cc2Cl)c(F)c(OC)c1Cl", "0 to 29%"),
    ("COC(=O)c1nc(-c2ccc(C(F)(F)F)c(F)c2F)ccc1Cl", "0 to 29%"),
    ("O=C(O)c1nc(-c2ccc(C(F)(F)F)nc2)ccc1Cl", "0 to 29%"),
    ("COC(=O)c1nc(-c2ccc3cc[nH]c3c2)c(F)cc1Cl", "0 to 29%"),
    ("CO/N=C/c1c(C(F)(F)F)ccc(-c2ccc(Cl)c(C(=O)OC)n2)c1Cl", "0 to 29%"),
    ("COC(=O)c1nc(-c2ccc(Cl)c3c2OC(F)(F)O3)ccc1Cl", "0 to 29%"),
    ("C=Cc1cc(-c2nc(C(=O)OC)c(Cl)cc2F)c(OC)c2c1OC(F)(F)O2", "0 to 29%"),
    ("Cc1cc(C(F)(F)F)cc(Cl)c1-c1ccc(Cl)c(C(=O)O)n1", "45 to 59%"),
    ("COc1c(Cl)ccc(-c2cc(Cl)c(Cl)c(C(=O)O)n2)c1F", "95 to 100%"),
    ("COC(=O)c1cc(Cl)cc(-c2ccc(Cl)cc2Cl)n1", "0 to 29%"),
    ("O=C(O)c1nc(-c2cc(F)c(C(F)(F)F)cc2Cl)c(F)cc1Cl", "95 to 100%"),
    ("O=C(O)c1nc(-c2ccc3[nH]ccc3c2)c(F)cc1Cl", "0 to 29%"),
    ("COC(=O)c1nc(-c2cc(N)c(C(F)(F)F)cc2Cl)ccc1Cl", "60 to 74%"),
    ("C=Cc1cc(C(F)(F)F)cc(Cl)c1-c1ccc(Cl)c(C(=O)OC)n1", "0 to 29%"),
    ("COC(=O)c1nc(-c2ccc(Oc3ccc(F)cc3)cc2Cl)ccc1Cl", "0 to 29%"),
    ("CCCCOC(=O)c1nc(-c2ccc(Br)c(OC)c2F)ccc1Cl", "0 to 29%"),
    ("COC(=O)c1nc(-c2cc3c(cc2Cl)OC(F)(F)O3)ccc1Cl", "75 to 84%"),
    ("COC(=O)c1nc(-c2cccc(OC(F)(F)F)c2F)ccc1Cl", "0 to 29%"),
]
